experiment: Pharmacokinetics of three diester alkaloids in rat plasma after oral Aconiti Lateralis Radix extract, with or without 7-day P. ginseng pretreatment; type: in vivo, Sprague-Dawley rats; conditions: Sprague-Dawley, rat, in vivo, po, 1 g/kg, oral Aconiti Lateralis Radix extract 1 g/kg on 8th day, P. ginseng-high (10 g/kg oral, 7 days), read-out: Tmax
This section presents molecules with their documented Tmax values.
Field format: number, assumed h, no unit text.

COC[C@@]12CC[C@H](OC)[C@]34C(C([C@H](OC)[C@H]13)[C@]1(OC(C)=O)[C@H]3[C@@H](OC(=O)c5ccccc5)[C@](O)(C[C@H]34)[C@@H](OC)[C@@H]1O)N(C)C2 [Hypaconitine]; 1.83

Pending molecule:
Entry CCN1C[C@]2(COC)[C@H](O)C[C@H](OC)[C@@]34[C@@H]5C[C@@]6(O)[C@H](OC(=O)c7ccccc7)[C@@H]5[C@@](OC(C)=O)([C@@H]([C@H](OC)[C@H]23)[C@@H]14)[C@@H](O)[C@@H]6OC [Aconitine] , Tmax reported as 1.33

----------
test: Pharmacokinetics of three diester alkaloids in rat plasma after oral Aconiti Lateralis Radix extract, with or without 7-day P. ginseng pretreatment; assay type: in vivo, Sprague-Dawley rats; details: Sprague-Dawley, rat, in vivo, po, 1 g/kg, oral Aconiti Lateralis Radix extract 1 g/kg on 8th day, control group (distilled water 7 days), read-out: t1/2z (converted)
Measured endpoint: half-life (h)
Field format: number, assumed h, no unit text.

CCN1C[C@]2(COC)[C@H](O)C[C@H](OC)[C@@]34[C@@H]5C[C@@]6(O)[C@H](OC(=O)c7ccccc7)[C@@H]5[C@@](OC(C)=O)([C@@H]([C@H](OC)[C@H]23)[C@@H]14)[C@@H](O)[C@@H]6OC; 10.7

Pending compound:
Entry `COC[C@@]12CC[C@H](OC)[C@]34C(C([C@H](OC)[C@H]13)[C@]1(OC(C)=O)[C@H]3[C@@H](OC(=O)c5ccccc5)[C@](O)(C[C@H]34)[C@@H](OC)[C@@H]1O)N(C)C2` , half-life reported as 14.1

----------
experiment: Pharmacokinetics of three diester alkaloids in rat plasma after oral Aconiti Lateralis Radix extract, with or without 7-day P. ginseng pretreatment; assay type: in vivo, Sprague-Dawley rats; settings: Sprague-Dawley, rat, in vivo, po, 1 g/kg, oral Aconiti Lateralis Radix extract 1 g/kg on 8th day, control group (distilled water 7 days), read-out: Tmax
This section presents molecules with their documented Tmax values.

COC[C@@]12CC[C@H](OC)[C@]34C(C([C@H](OC)[C@H]13)[C@]1(OC(C)=O)[C@H]3[C@@H](OC(=O)c5ccccc5)[C@](O)(C[C@H]34)[C@@H](OC)[C@@H]1O)N(C)C2; 2.67 h

Pending molecule:
Entry `CCN1C[C@]2(COC)[C@H](O)C[C@H](OC)[C@@]34[C@@H]5C[C@@]6(O)[C@H](OC(=O)c7ccccc7)[C@@H]5[C@@](OC(C)=O)([C@@H]([C@H](OC)[C@H]23)[C@@H]14)[C@@H](O)[C@@H]6OC` , Tmax reported as 2.67 h

Values were extracted from paper PMC6304572.
